Data origin: patent US9296723B2

# target_desc: NAMPT (Homo sapiens)
# measurement_description: TR-FRET Binding Assay of NAMPT with PRPP
# experimental_conditions: 2 nM NAMPT, 2 nM probe, 200 µM PRPP and 2.5 mM ATP, equilibrated 16 hours
Threshold 0.4 nM: IC50 strictly smaller gives TRUE, otherwise FALSE.

Below are worked cases with known answers.
CC(C)(C)CN1CCC(c2ccc(NC(=O)N3CC(c4cccnc4)C3)cc2)CC1 ... FALSE
CC(C)C(=O)N1CC(c2ccc(NC(=O)N3CC(c4cccnc4)C3)cc2)C1 ... FALSE
O=C(CC1CCCC1)N1CCC(c2ccc(NC(=O)N3CC(c4cccnc4)C3)cc2)CC1 ... TRUE
COCCOCC(=O)N1CCC(c2ccc(NC(=O)N3CC(c4cccnc4)C3)cc2)CC1 ... TRUE
CC(C)CC(=O)N1CCC(c2ccc(NC(=O)N3CC(c4cccnc4)C3)cc2)C1 (centres unmarked) ... TRUE
O=C(Nc1ccc(OC2CCN(C(=O)c3ccsc3)CC2)cc1)N1CC(c2cccnc2)C1 ... FALSE

Is the reported IC50 for O=C(Nc1ccc(C2CN(CC3CCCCC3)C2)cc1)N1CC(c2cccnc2)C1 strictly below 0.4 nM?
TRUE

Is the reported IC50 for O=C(Nc1ccc(C2CCN(C(=O)C3CCCCC3)C2)cc1)N1CC(c2cccnc2)C1 (centres unmarked) strictly below 0.4 nM?
TRUE

###

# target_desc: NAMPT (Homo sapiens)
# measurement_description: Time-Resolved Fluorescence Resonance Energy Transfer (TR-FRET) Binding Assay of NAMPT
# experimental_conditions: 6.8 nM NAMPT, 200 nM probe, equilibrated 3 hours, no substrates
property_name: pIC50
Worth noting: pIC50 values are minus log10 of concentrations stated in mol/L.

CC(C)(C)CC(=O)N1CC[C@@H](Oc2ccc(NC(=O)N3CC(c4cccnc4)C3)cc2)C1 ... 7.52
O=C(Nc1ccc(C2CN(C(=O)c3ccoc3)C2)cc1)N1CC(c2cccnc2)C1 ... 7.74
O=C(CCN1CCCCC1)N1CCC(c2ccc(NC(=O)N3CC(c4cccnc4)C3)cc2)C1 (centres unmarked) ... 7.52
O=C(Nc1ccc(C2CCN(C(=O)c3cccs3)C2)cc1)N1CC(c2cccnc2)C1 (centres unmarked) ... 7.74
O=C(Nc1ccc(C2CN(C(=O)C3CCCC3)C2)cc1)N1CC(c2cccnc2)C1 ... 7.12
CC(C)(O)C(=O)N1CCC(c2ccc(NC(=O)N3CC(c4cccnc4F)C3)cc2)CC1 ... 8.57
CC(C)CC(=O)N1CC(Oc2ccc(NC(=O)N3CC(c4cccnc4)C3)cc2)C1 ... 7.72

We now examine a further molecule.
Provide value of pIC50 for this record tested with NAMPT (Homo sapiens): O=C(Nc1ccc(C2CN(CC3CCCC3)C2)cc1)N1CC(c2cccnc2)C1
6.50

###

# reported IC50; entries follow
# target_desc: NAMPT (Homo sapiens, UniProt P43490)
# Sequence (P43490 whole entry): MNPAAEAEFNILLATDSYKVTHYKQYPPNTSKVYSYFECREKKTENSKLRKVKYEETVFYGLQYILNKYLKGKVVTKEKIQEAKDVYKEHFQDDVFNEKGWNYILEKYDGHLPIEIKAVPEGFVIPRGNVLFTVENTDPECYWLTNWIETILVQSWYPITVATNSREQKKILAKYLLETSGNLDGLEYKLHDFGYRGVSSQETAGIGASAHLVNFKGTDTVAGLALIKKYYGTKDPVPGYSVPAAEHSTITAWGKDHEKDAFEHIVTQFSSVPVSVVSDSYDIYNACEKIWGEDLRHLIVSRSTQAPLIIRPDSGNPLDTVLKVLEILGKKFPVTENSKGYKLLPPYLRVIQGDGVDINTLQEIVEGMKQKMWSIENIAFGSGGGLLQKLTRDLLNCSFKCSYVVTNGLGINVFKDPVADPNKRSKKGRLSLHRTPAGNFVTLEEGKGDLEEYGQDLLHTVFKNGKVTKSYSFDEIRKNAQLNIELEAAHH
# measurement_description: TR-FRET Binding Assay of NAMPT with PRPP
# experimental_conditions: 2 nM NAMPT, 2 nM probe, 200 µM PRPP and 2.5 mM ATP, equilibrated 16 hours

Solved entries (count: 2):
CCCC(=O)N1CCC(c2ccc(NC(=O)N3CC(c4cccnc4)C3)cc2)CC1 ... 0.206 nM
O=C(CC(F)(F)F)N1CCC(c2ccc(NC(=O)N3CC(c4cccnc4)C3)cc2)C1 (stereo not drawn) ... 0.211 nM

We now examine a further compound.
Provide value of IC50 for this record tested with NAMPT (Homo sapiens, UniProt P43490): O=C(CC(F)(F)F)N1CC=C(c2ccc(NC(=O)N3CC(c4cccnc4)C3)cc2)CC1
0.294 nM
